measurement-notes: Stat Signaling Pathway (AID 446);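 also: ME-180 cervical cancer cells given 40 pM IL-6 alongside compound; SIE-controlled beta-lactamase reporter measured as 460/530 nm FRET emission ratio; % is scaled to controls: 0 for no effect and ±100 for the full control effect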
cond: ME-180 SIE beta-lactamase reporter, IL-6 stimulated, 5 h; at 7.69 µM (top of the series) unless noted
Results filed as inconclusive are left out. The source made the active and inactive calls. Calls follow the shape of the dose curve; as a rule, active = well fitted curve in either direction with a large enough effect (not every such curve was filed as active); inconclusive = small, poorly fitted or top-dose-only effect, or another doubt; inactive = flat fitted curve, though single readings scatter.
Hello, when you answer, please use one of the following outcomes: active, inactive

* Cc1cccc(CNc2cc(-c3ccc(C(=O)N(C)C)cc3)ncn2)c1 | inactive
* COc1ccc(CNc2ncnc3ccc(-c4ccoc4)cc23)c(OC)c1 | inactive

Kindly review the next molecule as well.
-- ask What classification did `CC(C)CN1CC[C@@]2(CCCN(C(=O)c3ccco3)C2)C1` end up with in this test?
-- reply inactive

---

target: Cytochrome P450 1A2 (Homo sapiens) (UniProt P05177)
Sequence (P05177 whole entry, looked up): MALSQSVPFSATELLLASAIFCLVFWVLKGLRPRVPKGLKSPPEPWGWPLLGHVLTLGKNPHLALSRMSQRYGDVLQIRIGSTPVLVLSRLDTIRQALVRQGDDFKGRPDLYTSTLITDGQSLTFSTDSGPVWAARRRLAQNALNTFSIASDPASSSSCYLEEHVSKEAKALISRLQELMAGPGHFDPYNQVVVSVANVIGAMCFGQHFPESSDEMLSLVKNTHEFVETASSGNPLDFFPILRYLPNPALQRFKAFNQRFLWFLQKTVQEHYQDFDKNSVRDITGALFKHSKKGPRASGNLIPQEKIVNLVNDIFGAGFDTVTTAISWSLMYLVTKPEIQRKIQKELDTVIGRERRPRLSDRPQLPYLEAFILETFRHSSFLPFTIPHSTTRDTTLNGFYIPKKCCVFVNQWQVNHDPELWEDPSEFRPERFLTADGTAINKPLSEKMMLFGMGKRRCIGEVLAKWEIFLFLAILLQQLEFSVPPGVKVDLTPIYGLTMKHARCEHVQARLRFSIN
measurement-notes: p450-cyp1a2 (AID 410)
cond: recombinant CYP1A2, luciferin-ME demethylation, luminescence; series mostly up to 57 µM
Results filed as inconclusive are left out. Calls of active or inactive are those of the source. Calls follow the shape of the full dose curve.
Hello, when you answer, please use one of the following outcomes: active, inactive

Examples with answers:
* CCNc1ncc2nc(-c3cn(C)c4ccccc34)c(=O)n(Cc3ccc(F)cc3)c2n1 | active
* O=S(=O)(c1ccccc1)N1CCC2(CCCN(c3cccc(-c4ccccc4)c3)C2)CC1 | inactive
* COc1ccccc1CNc1ccnc(-c2ccc(C(=O)N(C)C)cc2)n1 | active
* c1csc(CNc2ncncc2-c2ccoc2)c1 | active

-- ask What classification did `COc1ccc(-c2nc3cnc(N4CCN(C)CC4)nc3n(C3CC3)c2=O)cc1` end up with in this test?
-- reply active

-- ask What classification did `COc1cccc(Cn2c(=O)c(-c3cccc(C#N)c3)nc3cnc(Nc4ccccc4)nc32)c1` end up with in this test?
-- reply inactive

-- ask What classification did `Cc1cccc(CNc2ncnc3ccc(-c4c(C)noc4C)cc23)c1` end up with in this test?
-- reply active

-- ask What classification did `O[C@@](CCN1CCCCC1)(c1ccccc1)C1CCCCC1` end up with in this test?
-- reply inactive

-- ask What classification did `O=c1c(-c2ccccc2)nc2cnc(N3CCOCC3)nc2n1C[C@H]1CCCO1` end up with in this test?
-- reply active

-- ask What classification did `COc1ncc2nc(-c3ccc(Cl)cc3)c(=O)n(-c3ccccc3)c2n1` end up with in this test?
-- reply active

---

Measured activity, negative = inhibition by item
measurement-notes: Stat Signaling Pathway (AID 446);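 also: ME-180 cervical cancer cells given 40 pM IL-6 alongside compound; SIE-controlled beta-lactamase reporter measured as 460/530 nm FRET emission ratio; % is scaled to controls: 0 for no effect and ±100 for the full control effect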
cond: ME-180 SIE beta-lactamase reporter, IL-6 stimulated, 5 h; at 7.69 µM (top of the series) unless noted
Records with an inconclusive call do not appear.
Write the number in % without appending the unit.

Please review the following examples before continuing.
- COc1cccc(-c2nccc(N(C)Cc3ccco3)n2)c1: -2.39
- CC(=O)N1CCC2(CC1)CCN(c1ccncc1)CC2: -6.23
- Cc1cnc(CNc2ncncc2-c2cccc(NS(C)(=O)=O)c2)cn1: 13.1
- c1ccc(-c2cccc(N3CCCC4(CCNCC4)C3)c2)cc1: 8.57
- O=S(=O)(c1ccccc1)N1CCC2(CCN(c3ccncc3)CC2)CC1: 1.98
- COc1cccc(Cn2c(=O)cnc3cnc(N4CCOCC4)nc32)c1: -11
- O=S(=O)(c1ccccc1)N1CCC2(CC1)CN(c1ccncc1)C2: 0.614
- Cc1noc(C)c1-c1nccc(NC2CC2)n1: 1.49
- Cc1noc(C)c1-c1ccc2ncnc(N3CCC(C(=O)O)CC3)c2c1: 10.8
- CC(=O)NCCNc1nc(-c2cccc(NS(C)(=O)=O)c2)nc2ccccc12: -3.86

-- ask Determine from records and report activity, negative = inhibition for `CS(=O)(=O)N1CCC[C@@]2(CCN(C(=O)Nc3cccc(C#N)c3)C2)C1`
-- reply 1.86

-- ask Determine from records and report activity, negative = inhibition for `COc1ccc(CNc2ccnc(-c3ccc(C(=O)N(C)C)cc3)n2)c(OC)c1`
-- reply -4.52

-- ask Determine from records and report activity, negative = inhibition for `CC(C)NC(=O)N1CCC2(CC1)CCN(S(=O)(=O)c1ccccc1)CC2`
-- reply -1.93

---

Test system: CP260
measurement-notes: qHTS profiling for inhibitors of Plasmodium falciparum proliferation (AID 504749); also: nearly all actives have a fitted effect of over 60% in size
cond: P. falciparum in erythrocytes, SYBR Green DNA, 72 h; series mostly up to 12.8 µM
Records with an inconclusive call do not appear. Active and inactive are the calls of the source. The call rests on the fitted dose curve; in most records, active means well fitted inhibition curve with a large enough effect; inconclusive means small, poorly fitted or top-dose-only effect; inactive means flat fitted curve, though single readings scatter.
Hello, when you answer, please use one of the following outcomes: yes (1) = active, no (0) = inactive

* CCCN(CCC)C(=O)[C@@H](CCC(=O)O)NC(=O)c1ccccc1 | no (0)
* CO/N=C(/C(=O)NC1C(=O)N2C(C(=O)O)=C(CSc3nc(=O)c(O)nn3C)CSC12)c1csc(N)n1 (configuration not stated) | no (0)
* COc1ccc(C[C@@H]2c3cc(OC)c(OC)cc3CC[N@+]2(C)CCC(=O)OCCCCCOC(=O)CC[N@@+]2(C)CCc3cc(OC)c(OC)cc3[C@H]2Cc2ccc(OC)c(OC)c2)cc1OC | no (0)
* CCN1C(=O)N[C@@H](c2ccccc2)C1=O | no (0)
* Cc1cc(/C=C\c2ccc3cc(N(C)C)ccc3[n+]2C)c(C)n1-c1ccccc1 | yes (1)
* CN[C@@H]1[C@H](O[C@@H]2O[C@H](CO)[C@@H](N)[C@H](O)[C@@H]2O)O[C@H]2C[C@@H](N)[C@@H](O[C@H]3[C@@H](O)[C@H](O)[C@H](N)C[C@@H]3N)O[C@H]2[C@H]1O | no (0)

Kindly review the next compound as well.
-- ask What classification did `CC(=O)Nc1c(I)c(C(=O)N[C@H]2[C@@H](O)[C@H](O)[C@H](CO)O[C@@H]2O)c(I)c(N(C)C(C)=O)c1I` end up with in this test?
-- reply no (0)

---

System: TAB165
measurement-notes: qHTS profiling for inhibitors of Plasmodium falciparum proliferation (AID 504749); also: nearly all actives have a fitted effect of over 60% in size
cond: P. falciparum in erythrocytes, SYBR Green DNA, 72 h; series mostly up to 12.8 µM
Inconclusive results are not listed. The source made the active and inactive calls. Calls follow the shape of the dose curve; as a rule, active = well fitted inhibition curve with a large enough effect; inconclusive = small, poorly fitted or top-dose-only effect; inactive = flat fitted curve, though single readings scatter.
Hello, when you answer, please use one of the following outcomes: 1 (yes) for active, 0 (no) for inactive

- CC(C)NC[C@H](O)c1cc(O)cc(O)c1: 0 (no)
- CCn1cc(C(=O)O)c(=O)c2cc(F)c(N3CCN[C@@H](C)C3)c(F)c21: 0 (no)
- O=C(c1ccccc1)c1ccc2n1CC[C@H]2C(=O)O: 0 (no)
- CC(C)(C)NC[C@H](O)c1cc(O)cc(O)c1: 0 (no)
- CN(C)[C@H]1C(=O)C(C(=O)NCN2CCCC2)=C(O)[C@]2(O)C(=O)C3=C(O)c4c(O)cccc4[C@@](C)(O)[C@H]3C[C@@H]12: 0 (no)
- C[C@@H]1CCC[C@H](C)N1NC(=O)c1ccc(Cl)c(S(N)(=O)=O)c1: 0 (no)
- Cc1cc(/C=C\c2ccc3cc(N(C)C)ccc3[n+]2C)c(C)n1-c1ccccc1: 1 (yes)
- CN[C@@H](CC(C)C)C(=O)N[C@@H]1C(=O)N[C@H](CC(N)=O)C(=O)N[C@@H]2C(=O)N[C@H]3C(=O)N[C@H](C(=O)N[C@H](C(=O)O)c4cc(O)cc(O)c4-c4cc3ccc4O)[C@H](O)c3ccc(c(Cl)c3)Oc3cc2cc(c3O[C@H]2O[C@@H](CO)[C@@H](O)[C@@H](O)[C@@H]2O[C@@H]2C[C@](C)(N)[C@H](O)[C@H](C)O2)Oc2ccc(cc2Cl)[C@@H]1O: 0 (no)

-- ask What classification did `C[C@@H](CCc1ccccc1)NC[C@H](O)c1ccc(O)c(C(N)=O)c1` end up with in this test?
-- reply 0 (no)

-- ask What classification did `CCCN[C@@H](C)C(=O)Nc1c(C)csc1C(=O)OC` end up with in this test?
-- reply 0 (no)

---

target: Lysosomal acid glucosylceramidase (Homo sapiens) (UniProt P04062)
Sequence (P04062 whole entry, looked up): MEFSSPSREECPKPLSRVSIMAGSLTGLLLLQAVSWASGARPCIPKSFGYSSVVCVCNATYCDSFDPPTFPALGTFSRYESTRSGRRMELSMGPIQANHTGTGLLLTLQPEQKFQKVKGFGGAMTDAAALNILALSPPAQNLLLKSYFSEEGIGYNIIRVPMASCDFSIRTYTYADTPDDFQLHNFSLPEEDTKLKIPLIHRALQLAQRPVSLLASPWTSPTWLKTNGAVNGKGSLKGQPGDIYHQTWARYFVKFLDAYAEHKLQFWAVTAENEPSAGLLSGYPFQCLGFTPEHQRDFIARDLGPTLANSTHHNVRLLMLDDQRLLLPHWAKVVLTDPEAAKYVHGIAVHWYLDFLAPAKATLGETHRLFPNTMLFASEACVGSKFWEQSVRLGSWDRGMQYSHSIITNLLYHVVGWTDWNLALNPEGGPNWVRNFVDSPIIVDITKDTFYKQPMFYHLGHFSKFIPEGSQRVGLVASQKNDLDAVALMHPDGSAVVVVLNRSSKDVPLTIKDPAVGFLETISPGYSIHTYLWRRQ
measurement-notes: Glucocerebrosidase-p2 (AID 348); also: potency is read from the fitted curve at half-maximal effect
cond: purified GBA, blue fluorogenic substrate, 40 min
Calls of active or inactive are those of the source. Cut-off read from the data, not from the text of the source: active = potency below about 10 µM; inactive = the rest.
measurement-kind: Potency

* COC(=O)N1CCC[C@@]2(CCN(c3ncccn3)C2)C1 | > 11.4 µM (inactive)
* Cc1cccc(CNc2nc(-c3cccc(NS(C)(=O)=O)c3)nc3ccccc23)c1 | > 11.4 µM (inactive)
* FC(F)(F)c1ccccc1-c1nc(NC2CC2)c2ccccc2n1 | 6.53 µM (active)
* O=C(c1cnccn1)N1CCC[C@@]2(CCN(Cc3ccncc3)C2)C1 | > 11.4 µM (inactive)
* COc1ccc(-n2c(=O)c(-c3cccs3)nc3cnc(N4CCNCC4)nc32)cc1 | > 11.4 µM (inactive)

For the next question, use this compound.
-- ask Determine from records and report Potency for `CC(=O)NCCNc1nc(-c2cccc(NS(C)(=O)=O)c2)nc2ccccc12`
-- reply > 11.4 µM (inactive)

---

measurement-notes: Stat Signaling Pathway (AID 446);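 also: ME-180 cervical cancer cells given 40 pM IL-6 alongside compound; SIE-controlled beta-lactamase reporter measured as 460/530 nm FRET emission ratio; % is scaled to controls: 0 for no effect and ±100 for the full control effect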
cond: ME-180 (cervical carcinoma) SIE beta-lactamase reporter, IL-6 stimulated, 5 h; at 7.69 µM (top of the series) unless noted
Results filed as inconclusive are left out. Calls of active or inactive are those of the source. Calls come from the whole dose curve; as a rule, active = well fitted curve in either direction with a large enough effect (not every such curve was filed as active); inconclusive = small, poorly fitted or top-dose-only effect, or another doubt; inactive = flat fitted curve, though single readings scatter.
measurement-kind: activity, negative = inhibition

* CN1CCC2(CC1)CCN(S(=O)(=O)c1ccccc1)CC2 | -1.02% (inactive)
* FC(F)(F)c1ccccc1-c1cncnc1NCc1cccs1 | -1.4% (inactive)
* COc1ccc(NC(=O)N2CCC3(CC2)CCN(C(=O)c2ccco2)CC3)cc1 | -1.71% (inactive)
* COCCn1c(=O)c(-c2cccs2)nc2cnc(OC)nc21 | 6.32% (inactive)

-- ask Determine from records and report activity, negative = inhibition for `CN(C)c1ncc2nc(-c3ccc(Cl)cc3)c(=O)n(C[C@H]3CCCO3)c2n1`
-- reply 11.6% (inactive)

-- ask Determine from records and report activity, negative = inhibition for `O=C(Nc1cccc(F)c1)N1CC[C@@]2(CCCN(C(=O)c3cnccn3)C2)C1`
-- reply 2.65% (inactive)

-- ask Determine from records and report activity, negative = inhibition for `O=C(c1ccco1)N1CCC2(CC1)CCN(c1ccncc1)CC2`
-- reply 11.2% (inactive)

-- ask Determine from records and report activity, negative = inhibition for `O=C(Nc1cccc(F)c1)N1CCCC2(CCN(C(=O)c3cnccn3)CC2)C1`
-- reply -5.83% (inactive)

-- ask Determine from records and report activity, negative = inhibition for `N#Cc1ccc(CN2CC[C@@]3(CCCN(S(=O)(=O)c4ccccc4)C3)C2)cc1`
-- reply -5.91% (inactive)

-- ask Determine from records and report activity, negative = inhibition for `COc1ccc(NC(=O)N2CC3(CCN(C(=O)c4cc(C(F)(F)F)cc(C(F)(F)F)c4)CC3)C2)cc1`
-- reply -20.2% (inactive)
